// data source = paper PMC10958042

B1: ATGL (PNPLA2, patatin-like phospholipase domain-containing protein 2), human, full length / G0S2 (G0/G1 switch protein 2), human (parent)
chain 1: MFPREKTWNISFAGCGFLGVYYVGVASCLREHAPFLVANATHIYGASAGALTATALVTGVCLGEAGAKFIEVSKEARKRFLGPLHPSFNLVKIIRSFLLKVLPADSHEHASGRLGISLTRVSDGENVIISHFNSKDELIQANVCSGFIPVYCGLIPPSLQGVRYVDGGISDNLPLYELKNTITVSPFSGESDICPQDSSTNIHELRVTNTSIQFNLRNLYRLSKALFPPEPLVLREMCKQGYRDGLRFLQRNGLLNRPNPLLALPPARPHGPEDKDQAVESAQAEDYSQLPGEDHILEHLPARLNEALLEACVEPTDLLTTLSNMLPVRLATAMMVPYTLPLESALSFTIRLLEWLPDVPEDIRWMKEQTGSICQYLVMRAKRKLGRHLPSRLPEQVELRRVQSLPSVPLSCAAYREALPGWMRNNLSLGDALAKWEECQRQLLLGLFCTNVAFPPEALRMRAPADPAPAPADPASPQHQLAGPAPLLSTPAPEARPVIGALGL
chain 2: METVQELIPLAKEMMAQKRKGKMVKLYVLGSVLALFGVVLGLMETVCSPFTAARRLRDQEAAVAELQAALERQALQKQALQEKGKQQDTVLGGRALSNRQHAS

- Variants of: B1
- EXPERIMENTAL_DETAILS: LUMIER: Protein A-ATGL variant and firefly luciferase-partner co-expressed in HEK293T, lysates immunoprecipitated on IgG-coated plates, co-precipitated partner measured as luciferase luminescence
- MEASUREMENT_CONTEXT: with G0S2 (G0/G1 switch protein 2), transient co-transfection, IgG-coated LUMITRAC plates, 2 h at 4 °C, three PBS washes, Bright-Glo luciferase reagent, triplicates per assay, two …, parent: 0.56, not graded, scale: log2 fold change of co-immunoprecipitated luminescence relative to wild-type ATGL within each experiment
PROPERTY: screen value
Answer field: number only, no words.

Task: Fill in: screen value of chain 1 G66L is ___
Output: -0.16

Task: Fill in: screen value of chain 1 N180L is ___
Output: -1.94

Task: Fill in: screen value of chain 1 Q140K is ___
Output: -0.175

Task: Fill in: screen value of chain 1 I70A is ___
Output: -1.14

Task: Fill in: screen value of chain 1 F35E is ___
Output: 0.169

Task: Fill in: screen value of chain 1 S87E is ___
Output: -1.39

Task: Fill in: screen value of chain 1 R351L is ___
Output: 0.273

Task: Fill in: screen value of chain 1 K275A is ___
Output: -0.748

Task: Fill in: screen value of chain 1 N39E is ___
Output: -2.67

Task: Fill in: screen value of chain 1 R95K is ___
Output: 0.0501

Task: Fill in: screen value of chain 1 G16K is ___
Output: -0.755

Task: Fill in: screen value of chain 1 A434L is ___
Output: -0.0543

Task: Fill in: screen value of chain 1 E125L is ___
Output: -0.181

Task: Fill in: screen value of chain 1 T41A is ___
Output: 0.0587

Task: Fill in: screen value of chain 1 R113K is ___
Output: -0.0371

Task: Fill in: screen value of chain 1 L261E is ___
Output: -0.673

Task: Fill in: screen value of chain 1 G59L is ___
Output: -2.22

Task: Fill in: screen value of chain 1 R95L is ___
Output: -0.569

Task: Fill in: screen value of chain 1 S158E is ___
Output: 0.0613

Task: Fill in: screen value of chain 1 L62K is ___
Output: -1.99

Task: Fill in: screen value of chain 1 A453E is ___
Output: -0.082

Task: Fill in: screen value of chain 1 G153K is ___
Output: -2.61

Task: Fill in: screen value of chain 1 L159A is ___
Output: -0.671

Task: Fill in: screen value of chain 1 Q140A is ___
Output: 0.734

Task: Fill in: screen value of chain 1 V328A is ___
Output: -2.9

Task: Fill in: screen value of chain 1 A104E is ___
Output: 0.0584

Task: Fill in: screen value of chain 1 S158A is ___
Output: 0.343

Task: Fill in: screen value of chain 1 G153A is ___
Output: -1.25

Task: Fill in: screen value of chain 1 I70K is ___
Output: -2.22

Task: Fill in: screen value of chain 1 L102K is ___
Output: -2.45

Task: Fill in: screen value of chain 1 S106K is ___
Output: -1.29

Task: Fill in: screen value of chain 1 S87A is ___
Output: -0.33

Task: Fill in: screen value of chain 1 Q396A is ___
Output: -1.71

Task: Fill in: screen value of chain 1 F348E is ___
Output: -0.287
